Target: T1, Crk SH3 (SH3 domain of mouse Crk, residues 134-191) (mouse, UniProt Q64010 134-191)
T1 construct: range 134-191; also called mouse Crk SH3 domain
T1 sequence (Q64010 134-191 limits assumed): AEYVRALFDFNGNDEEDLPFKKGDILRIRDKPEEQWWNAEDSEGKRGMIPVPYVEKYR
Experiment: method not described; footnote: affinities reported as measured in trans
measure_name: pKd
Numbers only, as −log10 of the molar value.

Incoming: Look at this binder and give its reported pKd. PPPALPPKRRRPG (also called SH3 peptide ligand) [SH3 lig.]
Outgoing: 7.00
